Data provenance is patent US20230212304A1.

assay.target: T1, recombinant human CTLA4-his protein (Acro biosystems, Cat#CT4-H5229) (human, UniProt P16410 37-162)
T1 construct: bought recombinant protein; not shown: his tag
T1 sequence (looked up): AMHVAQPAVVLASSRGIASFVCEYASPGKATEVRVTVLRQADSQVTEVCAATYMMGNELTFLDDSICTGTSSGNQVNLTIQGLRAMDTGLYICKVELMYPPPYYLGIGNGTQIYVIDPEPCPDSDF
assay: BLI, Octet; antibody from cell supernatant on AHC sensor, CTLA4-his as analyte
Label label 1 for high-side kon (at or above 100000 M⁻¹ s⁻¹) and label 0 for low-side kon (below it).

State whether the measured kon reaches 100000 M⁻¹ s⁻¹, counting equality as reaching it, for huD1D5-V9 (antibody, human IgG4 S228P, kappa, V domains shown, humanized IgG4/kappa; cell supernatant on Octet, purified antibody in Biacore, ELISA, FACS and the functional assay; also called hu CTLA4 D1D5-V9; huDID5-V9) VH: EVQLVESGGGLVKPGGSLRLSCAASGFTFSDYGMAWVRQAPGKGPEWVAFISNLAYSVYYADTETGRFTISRDDAKNSLYLQMNSLRAEDTAVYYCARSGLPYAMDYWGQGTTVTVSS VL: DIQMTQSPSSLSASVGDRVTITCRASQDISNYLNWYQQKPGKVPKLLIYYISRLHSGVPSRFSGSGSGTDFTLTISSLQPEDVATYYCQQGRMLPWTFGGGTKVEIKR
label 1

State whether the measured kon reaches 100000 M⁻¹ s⁻¹, counting equality as reaching it, for huC1D1-V12 (antibody, human IgG4 S228P, kappa, V domains shown, humanized IgG4/kappa; tested as 293F cell supernatant on Octet; also called hu CTLA4 C1D1-V12; huC1D1-VI2) VH: EVQLVESGGGLVQPGRSLRLSCTASGFTFSDNWMNWVRQAPGKGLEWVGQIRNKPYNYETYYSDSVKGRFTISRDDSKSIAYLQMNSLKTEDTAVYYCTGGMDYWGQGTTVTVSS VL: DIQMTQSPSSLSASVGDRVTITCGASEIIYGALNWYQQKPGKVPKLLIYGATNLADGVPSRFSGSGSGTDFTLTISSLQPEDVATYYCQKILSPPPWTFGGGTKVEIKR
label 1

State whether the measured kon reaches 100000 M⁻¹ s⁻¹, counting equality as reaching it, for huC1D1-V11 (antibody, human IgG4 S228P, kappa, V domains shown, humanized IgG4/kappa; tested as 293F cell supernatant on Octet; also called hu CTLA4 C1D1-V11) VH: EVQLVESGGGLVQPGRSLRLSCTASGFTFSDNWMNWVRQAPGKGLEWVGQIRNKPYNYETYYSDSVKGRFTISRDDSKSIVYLQMNSLKTEDTAVYYCTGGMDYWGQGTTVTVSS VL: DIQMTQSPSSLSASVGDRVTITCGASEIIYGALNWYQQKPGKVPKLLIYGATNLADGVPSRFSGSGSGTDFTLTISSLQPEDVATYYCQKILSPPPWTFGGGTKVEIKR
label 1

State whether the measured kon reaches 100000 M⁻¹ s⁻¹, counting equality as reaching it, for huD1D5-V1 (antibody, human IgG4 S228P, kappa, V domains shown, humanized IgG4/kappa; tested as 293F cell supernatant on Octet; also called huCTLA4 D1D5-V1) VH: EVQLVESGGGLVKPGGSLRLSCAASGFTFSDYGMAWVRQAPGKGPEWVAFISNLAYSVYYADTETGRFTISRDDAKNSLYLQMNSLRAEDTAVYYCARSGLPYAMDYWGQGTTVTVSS VL: DIQMTQSPSSLSASVGDRVTITCRASQDISNYLNWYQQKPGKTVKLLIYYISRLHSGVPSRFSGSGSGTDFTLTISSLQPEDVATYFCQQGRMLPWTFGGGTKVEIKR
label 0

State whether the measured kon reaches 100000 M⁻¹ s⁻¹, counting equality as reaching it, for huD1D5-V5 (antibody, human IgG4 S228P, kappa, V domains shown, humanized IgG4/kappa; tested as 293F cell supernatant on Octet; also called hu CTLA4 DID5-V5) VH: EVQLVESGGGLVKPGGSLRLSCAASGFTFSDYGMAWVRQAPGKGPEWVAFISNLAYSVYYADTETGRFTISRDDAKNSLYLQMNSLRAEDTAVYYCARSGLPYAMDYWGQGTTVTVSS VL: DIQMTQSPSSLSASVGDRVTITCRASQDISNYLNWYQQKPGKVPKLLIYYISRLHSGVPSRFSGSGSGTDFTLTISSLQPEDVATYFCQQGRMLPWTFGGGTKVEIKR
label 1

State whether the measured kon reaches 100000 M⁻¹ s⁻¹, counting equality as reaching it, for huD1D5-V8 (antibody, human IgG4 S228P, kappa, V domains shown, humanized IgG4/kappa; tested as 293F cell supernatant on Octet; also called hu CTLA4 D1D5-V8) VH: EVQLVESGGGLVKPGGSLRLSCAASGFTFSDYGMAWVRQAPGKGLEWVSFISNLAYSVYYADTETGRFTISRDNAKNSLYLQMNSLRAEDTAVYYCARSGLPYAMDYWGQGTTVTVSS VL: DIQMTQSPSSLSASVGDRVTITCRASQDISNYLNWYQQKPGKVPKLLIYYISRLHSGVPSRFSGSGSGTDFTLTISSLQPEDVATYFCQQGRMLPWTFGGGTKVEIKR
label 0

State whether the measured kon reaches 100000 M⁻¹ s⁻¹, counting equality as reaching it, for huD1D5-V7 (antibody, human IgG4 S228P, kappa, V domains shown, humanized IgG4/kappa; tested as 293F cell supernatant on Octet; also called hu CTLA4 D1D5-V7) VH: EVQLVESGGGLVKPGGSLRLSCAASGFTFSDYGMAWVRQAPGKGLEWVAFISNLAYSVYYADTETGRFTISRDDAKNSLYLQMNSLRAEDTAVYYCARSGLPYAMDYWGQGTTVTVSS VL: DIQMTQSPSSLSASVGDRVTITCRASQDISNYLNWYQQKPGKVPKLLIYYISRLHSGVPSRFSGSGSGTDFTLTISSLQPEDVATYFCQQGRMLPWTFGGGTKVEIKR
label 0

State whether the measured kon reaches 100000 M⁻¹ s⁻¹, counting equality as reaching it, for huD1D5-V12 (antibody, human IgG4 S228P, kappa, V domains shown, humanized IgG4/kappa; tested as 293F cell supernatant on Octet; also called hu CTLA4 D1D5-V12) VH: EVQLVESGGGLVKPGGSLRLSCAASGFTFSDYGMAWVRQAPGKGLEWVSFISNLAYSVYYADTETGRFTISRDNAKNSLYLQMNSLRAEDTAVYYCARSGLPYAMDYWGQGTTVTVSS VL: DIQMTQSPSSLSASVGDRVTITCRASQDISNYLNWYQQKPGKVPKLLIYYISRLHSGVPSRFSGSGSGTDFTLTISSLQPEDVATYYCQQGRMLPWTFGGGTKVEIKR
label 0

State whether the measured kon reaches 100000 M⁻¹ s⁻¹, counting equality as reaching it, for huC1D1-V2 (antibody, human IgG4 S228P, kappa, V domains shown, humanized IgG4/kappa; tested as 293F cell supernatant on Octet; also called hu CTLA4 C1D1-V2) VH: EVQLVESGGGLVQPGRSLRLSCTASGFTFSDNWMNWVRQAPGKGLEWVAQIRNKPYNYETYYSDSVKGRFTISRDDSKSIAYLQMNSLKTEDTAVYYCTGGMDYWGQGTTVTVSS VL: DIQMTQSPSSLSASVGDRVTITCGASEIIYGALNWYQQKPGKSPKLLIYGATNLADGMPSRFSGSGSGRDYTLTISSLQPEDVATYYCQKILSPPPWTFGGGTKVEIKR
label 1

State whether the measured kon reaches 100000 M⁻¹ s⁻¹, counting equality as reaching it, for huD1D5-V4 (antibody, human IgG4 S228P, kappa, V domains shown, humanized IgG4/kappa; tested as 293F cell supernatant on Octet; also called hu CTLA4 D1D5-V4) VH: EVQLVESGGGLVKPGGSLRLSCAASGFTFSDYGMAWVRQAPGKGLEWVSFISNLAYSVYYADTETGRFTISRDNAKNSLYLQMNSLRAEDTAVYYCARSGLPYAMDYWGQGTTVTVSS VL: DIQMTQSPSSLSASVGDRVTITCRASQDISNYLNWYQQKPGKTVKLLIYYISRLHSGVPSRFSGSGSGTDFTLTISSLQPEDVATYFCQQGRMLPWTFGGGTKVEIKR
label 0
